Consider the following compounds; for each one, report its solubility.
Experiment: Aqueous solubility of compound at pH 4.6
Type: physicochemical

Check out these entries, answers already filled in.
Give its solubility value. Item: CC[C@H](C)[C@@H](NC(=O)[C@@H](NC(=O)[C@H](CCC(=O)O)NC(=O)[C@H](Cc1ccccc1)NC(=O)[C@@H](CCN)NC(=O)[C@H](CCN)NC(=O)[C@H](CO)NC(=O)[C@@H](Cc1c[nH]c2ccccc12)NC(=O)[C@@H](CO)NC(=O)CNC(=O)[C@@H](CCN)NC(=O)[C@H](N)C(C)C)C(C)C)C(=O)N[C@@H](C)C(=O)O > 1 mg/mL

Give its solubility value. Item: CCCCCCCC(=O)N[C@@H](C(=O)N[C@H](CCN)C(=O)NCC(=O)N[C@H](CO)C(=O)N[C@H](Cc1c[nH]c2ccccc12)C(=O)N[C@@H](CO)C(=O)N[C@@H](CCN)C(=O)N[C@H](CCN)C(=O)N[C@@H](Cc1ccccc1)C(=O)N[C@@H](CCC(=O)O)C(=O)N[C@H](C(=O)N[C@@H](C(=O)N[C@@H](C)C(=O)O)[C@@H](C)CC)C(C)C)C(C)C 88 mg/mL

Further cases:
Give its solubility value. Item: CC[C@H](C)[C@@H](NC(=O)[C@@H](NC(=O)[C@H](CCC(=O)O)NC(=O)[C@H](Cc1ccccc1)NC(=O)[C@@H](CCN)NC(=O)[C@H](CCN)NC(=O)[C@H](CO)NC(=O)[C@@H](Cc1c[nH]c2ccccc12)NC(=O)[C@@H](CO)NC(=O)CNC(=O)[C@@H](CCN)NC(=O)[C@H](NC(=O)[C@H](C)N)C(C)C)C(C)C)C(=O)N[C@@H](C)C(=O)O > 1 mg/mL
